- system_under_test: p110α (Homo sapiens, UniProt P42336)
- Construct: purchased Upstate Millipore
- Sequence (P42336 whole entry, species assumed): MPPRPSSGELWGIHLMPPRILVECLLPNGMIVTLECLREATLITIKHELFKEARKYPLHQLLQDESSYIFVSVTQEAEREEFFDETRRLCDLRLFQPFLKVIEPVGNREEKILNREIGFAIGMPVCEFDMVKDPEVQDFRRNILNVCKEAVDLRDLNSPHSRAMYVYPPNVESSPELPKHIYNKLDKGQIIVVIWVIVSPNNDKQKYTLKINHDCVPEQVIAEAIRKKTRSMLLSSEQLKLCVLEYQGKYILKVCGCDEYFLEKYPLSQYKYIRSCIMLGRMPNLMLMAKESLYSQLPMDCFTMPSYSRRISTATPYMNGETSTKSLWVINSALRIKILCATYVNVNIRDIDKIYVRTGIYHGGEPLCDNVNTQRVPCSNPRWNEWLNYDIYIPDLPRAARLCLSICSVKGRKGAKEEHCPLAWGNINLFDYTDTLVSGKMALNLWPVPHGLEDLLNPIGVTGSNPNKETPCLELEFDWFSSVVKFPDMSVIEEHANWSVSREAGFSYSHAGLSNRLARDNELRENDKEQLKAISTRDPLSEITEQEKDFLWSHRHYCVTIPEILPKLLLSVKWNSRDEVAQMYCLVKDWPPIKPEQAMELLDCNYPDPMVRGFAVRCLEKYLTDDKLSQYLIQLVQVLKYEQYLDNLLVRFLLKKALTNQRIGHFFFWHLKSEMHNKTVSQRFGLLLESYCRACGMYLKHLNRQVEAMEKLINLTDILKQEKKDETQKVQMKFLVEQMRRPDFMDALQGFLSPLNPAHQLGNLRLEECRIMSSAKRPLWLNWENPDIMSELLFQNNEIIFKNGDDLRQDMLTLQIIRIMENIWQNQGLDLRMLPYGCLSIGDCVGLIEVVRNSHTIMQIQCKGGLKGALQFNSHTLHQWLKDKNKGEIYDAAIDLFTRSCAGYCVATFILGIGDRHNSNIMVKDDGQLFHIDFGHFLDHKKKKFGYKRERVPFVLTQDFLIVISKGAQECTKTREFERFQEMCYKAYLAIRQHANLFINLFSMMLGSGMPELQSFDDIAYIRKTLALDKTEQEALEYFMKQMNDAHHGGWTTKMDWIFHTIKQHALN
- Sequence (P27986 whole entry partner, species assumed): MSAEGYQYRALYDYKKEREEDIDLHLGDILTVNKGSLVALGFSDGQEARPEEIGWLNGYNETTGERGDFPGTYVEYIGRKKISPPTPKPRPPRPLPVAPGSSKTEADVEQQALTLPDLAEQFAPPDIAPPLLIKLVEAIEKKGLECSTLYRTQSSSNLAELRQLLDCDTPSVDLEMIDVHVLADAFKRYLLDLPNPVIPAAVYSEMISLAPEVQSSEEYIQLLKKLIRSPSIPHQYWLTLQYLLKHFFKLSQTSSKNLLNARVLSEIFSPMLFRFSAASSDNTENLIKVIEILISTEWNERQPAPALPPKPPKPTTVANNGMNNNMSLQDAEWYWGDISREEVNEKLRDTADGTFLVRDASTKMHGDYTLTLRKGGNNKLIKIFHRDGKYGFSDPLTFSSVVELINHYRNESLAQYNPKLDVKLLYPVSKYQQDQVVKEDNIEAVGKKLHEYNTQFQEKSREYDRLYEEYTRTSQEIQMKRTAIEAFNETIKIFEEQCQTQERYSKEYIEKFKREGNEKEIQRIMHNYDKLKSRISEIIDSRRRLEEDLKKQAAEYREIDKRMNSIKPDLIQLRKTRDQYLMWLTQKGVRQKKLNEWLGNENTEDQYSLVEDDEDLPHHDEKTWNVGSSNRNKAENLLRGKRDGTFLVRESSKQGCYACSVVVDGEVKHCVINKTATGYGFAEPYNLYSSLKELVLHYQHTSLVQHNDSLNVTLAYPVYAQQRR
- protocol_notes: p110α radioactive lipid kinase assay (PI3Kα)
- Format: biochemical
- study_conditions: 25 μM ATP, 2 h at RT, read-out: IC50 in μM (PI3 kinase activity)
assay_metric: IC50

Cn1c(=NC#N)n(-c2ccc(C(C)(C)C#N)nc2)c2c3cc(-c4ccc5cc[nH]c5c4)ccc3ncc21 ≤ 0.01 µM
Cn1c(=NC#N)n(-c2ccc(C(C)(C)C#N)nc2)c2c3cc(-c4cnc(N)c(C(F)(F)F)c4)ccc3ncc21 ≤ 0.01 µM
Cc1cc(-c2ccc3ncc4c(c3c2)n(-c2ccc(C(C)(C)C#N)nc2)c(=NC#N)n4C)cnc1F 0.01 to 1 µM
Cn1c(=NC#N)n(-c2ccc(C(C)(C)C#N)nc2)c2c3cc(-c4ccc(N5CCCCC5)nc4)ccc3ncc21 0.01 to 1 µM
COc1ncc(-c2ccc3ncc4c(c3c2)n(-c2ccc(C(C)(C)C#N)nc2)c(=NC#N)n4C)cc1N 0.01 to 1 µM
Cn1c(=NC#N)n(-c2ccc(C(C)(C)C#N)nc2)c2c3cc(-c4ccc5[nH]ccc5c4)ccc3ncc21 ≤ 0.01 µM

We now examine a further molecule.
Qu. // query IC50 value for entry `Cn1c(=NC#N)n(-c2ccc(C(C)(C)C#N)nc2)c2c3cc(-c4cnc(N)nc4)ccc3ncc21`
Ans. 0.01 to 1 µM

###

# IC50 values compiled below
- System: A2780 (ovarian cell line)
- protocol_notes: Cytotoxicity assay (propidium iodide assay), A2780
- Assay type: cell-based
- study_conditions: Homo sapiens; A2780 cells, 48 h treatment

Below, 5 compounds whose answers are already recorded.
Cn1c(=NC#N)n(-c2ccc(OC(F)(F)F)cc2)c2c3cc(-c4ccncc4)ccc3ncc21 ≤ 0.5 µM
COc1ccc(-n2c(=NC#N)n(C)c3cnc4ccc(-c5cnc6ccccc6c5)cc4c32)c(OC)c1 ≤ 0.5 µM
COc1ccc(-n2c(=NC#N)n(C)c3cnc4ccc(-c5cnc(NC(=O)OC(C)(C)C)c(C(F)(F)F)c5)cc4c32)cn1 ≤ 0.5 µM
COc1ncc(-c2ccc3ncc4c(c3c2)n(-c2ccc(C(C)(C)C#N)nc2)c(=NC#N)n4C)cc1NS(=O)(=O)c1ccccc1 ≤ 0.5 µM
Cc1cc(-c2ccc3ncc4c(c3c2)n(-c2ccc(C(C)(C)C#N)nc2)c(=NC#N)n4C)cnc1F ≤ 0.5 µM

Qu. // query IC50 value for entry `Cn1c(=NC#N)n(-c2ccc(C(C)(C)C#N)nc2)c2c3cc(-c4cnc(N)c(C(F)(F)F)c4)ccc3ncc21`
Ans. ≤ 0.5 µM

Qu. Entry `COc1ccc(-n2c(=NC#N)n(C)c3cnc4ccc(-c5ccc(N(C)C)nc5)cc4c32)cn1` please
Ans. ≤ 0.5 µM
